tested on: CCRF-CEM; assay: NCI tumour cell line growth inhibition, 48 h
Active and inactive are the calls of the source. Cut-off read from the data, not from the text of the source: active = GI50 up to about 1.1 µM and inactive = higher.
Classes used: yes for active, no for inactive

COMPOUND: O=C1CC(/C=C/c2ccco2)=C(O)C1=O
CLASS NAME: no
//
COMPOUND: COc1ccc(C2C(Cl)C(=O)N2NC(=O)c2ccc(N)cc2)cc1 (stereo not drawn)
CLASS NAME: no
//
COMPOUND: COc1ccc(S(=O)(=O)N/N=C/C(=O)O)cc1
CLASS NAME: no
//
COMPOUND: CCOC(=O)C1C(c2ccc(OC)cc2)c2c(n[nH]c2O)CC1(C)O (stereo not drawn)
CLASS NAME: no
//
COMPOUND: CN1Cc2cc(O)c(O)cc2C(O)C1 (stereo not drawn)
CLASS NAME: no
//
COMPOUND: N#Cc1c(C#N)c(SSc2c(C#N)c(C#N)c(N)n2-c2ccc(F)cc2)n(-c2ccc(F)cc2)c1N
CLASS NAME: no
//
COMPOUND: O=C1CCC2(CC1)Cc1ccccc1C2O (stereo not drawn)
CLASS NAME: no
//
COMPOUND: COc1ccc2c(c1)CCc1c(C(C)=O)c3ccccc3n1C2
CLASS NAME: no
//
COMPOUND: OC1OC2COC(c3ccccc3)OC2C(O)C1O (stereo not drawn)
CLASS NAME: no
//
COMPOUND: C=CCSc1nn(CC=C)cc2ncnc1-2
CLASS NAME: no
//
COMPOUND: COc1ccc(-c2cc(-c3cc4cc(Br)ccc4nc3Cl)c(C#N)c(N)n2)cc1
CLASS NAME: no
//
COMPOUND: CCOC(=O)CC(=O)ON(C)C(=O)Cc1ccccc1
CLASS NAME: no
//
COMPOUND: O=S(=O)(NC1CCCCC1)c1ccc2c(c1)OCCOCCOCCOCCO2
CLASS NAME: no
//
COMPOUND: CCCCCC(=O)OC[n+]1ccc2c(C)c3[nH]c4ccc(OC)cc4c3c(C)c2c1
CLASS NAME: yes
//
COMPOUND: Cc1ccc(C)n1-c1ccccc1C1SCCCS1
CLASS NAME: no
//
COMPOUND: c1ccc(C2=Nn3c(CCCCCCCCc4nnc5n4N=C(c4ccccc4)CS5)nnc3SC2)cc1
CLASS NAME: no
//
COMPOUND: Nc1cc(Cl)cc2cc(Cl)cnc12
CLASS NAME: no
//
COMPOUND: CC1OC2/C=C\CC(O)C(C)(C)C3CCC(C)C4(O3)O[B-]35OC(C(=O)OC1C2)C1(OC(CCC1C)C(C)(C)C(O)C/C=C\C1CC(OC(=O)C4O3)C(C)O1)O5 (stereo not drawn)
CLASS NAME: yes
//
COMPOUND: Cc1cn(C2CC(O)C(COC(=O)c3ccccc3)O2)c(=O)[nH]c1=O (stereo not drawn)
CLASS NAME: no
//
COMPOUND: COc1ccccc1C1c2cc3c(cc2OC2(OC)COC(=O)C12)OCO3 (stereo not drawn)
CLASS NAME: no
//
COMPOUND: COc1cc(C(O)CCBr)c(OC)cc1C (stereo not drawn)
CLASS NAME: no
//
COMPOUND: c1ccc(/C(=N\Nc2nc3ccccc3[nH]2)c2ccccn2)cc1
CLASS NAME: yes
//
COMPOUND: O=C(/C=C\c1ccc([N+](=O)[O-])cc1)c1ccccc(=O)c1O
CLASS NAME: yes
//
COMPOUND: CC(C)(C)NC(=O)[C@H]1CC[C@H]2[C@@H]3CC=C4NC(=O)CC[C@]4(C)[C@H]3CC[C@]12C
CLASS NAME: no
//
COMPOUND: O=C(NI1OC(=O)c2ccccc21)c1ccc(Cl)cc1
CLASS NAME: no
//
COMPOUND: c1ccc(C2C3=C(CCCC3)Nc3nc4cc5ccccc5cc4n32)cc1 (stereo not drawn)
CLASS NAME: no
//
COMPOUND: Cn1c(=O)n(CC2CS2)c2ccccc21 (stereo not drawn)
CLASS NAME: no
//
COMPOUND: CC(=O)OCC(C)(COC(C)=O)N1C(=O)C2C3c4ccccc4C(c4ccccc43)C2C1=O (stereo not drawn)
CLASS NAME: no
//
COMPOUND: CC[C@@H](/C=C\CCC1(C[C@H](O)CCC=C(C)C)OCCO1)O[Si](C(C)C)(C(C)C)C(C)C
CLASS NAME: no
//
COMPOUND: Cc1nc2ccc(Cl)cc2c(-n2ccnc2)c1CCn1ccnc1
CLASS NAME: no
//
COMPOUND: COC(=O)N/N=C/c1oc(-c2cccc([N+](=O)[O-])c2)c(-c2cccc([N+](=O)[O-])c2)c1[N+](=O)[O-]
CLASS NAME: no
//
COMPOUND: CC(=O)Nc1cc(/C=C\C(=O)N2CC(CCl)c3c2cc(N)c2ccccc32)n(C)n1 (stereo not drawn)
CLASS NAME: yes
//
COMPOUND: O=C(c1ccccc1)[C@H]1Nc2cnccc2C2c3ccccc3CC21 (stereo partly drawn)
CLASS NAME: no
//
COMPOUND: O=C1C(Cl)C(c2cc3cc(Br)ccc3nc2Cl)N1c1c(Cl)cccc1Cl (stereo not drawn)
CLASS NAME: no
//
COMPOUND: C/C=C1\CC2C(=O)CCC2C2c3ccccc3OC12 (stereo not drawn)
CLASS NAME: no
//
COMPOUND: CCOC(=O)NNC(=O)NCCCCNC(=O)NNC(=O)OCC
CLASS NAME: no
//
COMPOUND: CCOC(=O)/C=C\[C@H]1OC(C)(C)O[C@H]1[C@H](O)[C@H]1COC(C)(C)O1
CLASS NAME: no
//
COMPOUND: COc1ccc(N2C(=O)C3c4[nH]c5ccccc5c4C4CCC(C(C)(C)C)CC4C3C2=O)c(C)c1 (stereo not drawn)
CLASS NAME: no
//
COMPOUND: C#CCn1c(=O)ccn(/C(=C/C(=O)OCC)C(=O)OCC)c1=O
CLASS NAME: yes
//
COMPOUND: CN1C(c2ccccc2)CC(C)(O)CC1c1ccccc1 (stereo not drawn)
CLASS NAME: no
//
COMPOUND: Cc1ccc(-n2c(=O)c3nn4c(=O)n(-c5ccc(C)cc5)c(=O)c4nn3c2=O)cc1
CLASS NAME: no
//
COMPOUND: COC(=O)C(Cc1ccccc1)NP(=O)(O)OCC1OC(n2cc(F)c(=O)[nH]c2=O)CC1O (stereo not drawn)
CLASS NAME: yes
//
COMPOUND: CN(C)c1ncnc2c1ncn2CCn1cnc2c(N(C)C)ncnc21
CLASS NAME: no

====

tested on: 786-0; experiment: NCI tumour cell line growth inhibition, 48 h
The source made the active and inactive calls. No stated cut-off is given here; in the data, active = GI50 up to about 1.1 µM and inactive = higher.
PARAMETER: GI50

MOLECULE: CC(=O)O[C@@H]1C(C2CCCCC2)C=[N+]([O-])O[C@@H]1OC1CCCC1(c1ccccc1)c1ccccc1 (stereo partly drawn)
PARAMETER: GI50
RESULT: 3.76 µM (inactive)
//
MOLECULE: CC(C)(C)NC(=O)[C@H]1CC[C@H]2[C@@H]3CC=C4NC(=O)CC[C@]4(C)[C@H]3CC[C@]12C
PARAMETER: GI50
RESULT: 90.2 µM (inactive)
//
MOLECULE: c1ccc2c(c1)C1=NCCN1c1ccccc1-2
PARAMETER: GI50
RESULT: 2.6 µM (inactive)

====

test system: HCC 2998; assay: NCI tumour cell line growth inhibition, 48 h
Active and inactive are the calls of the source. No stated cut-off is given here; in the data, active = GI50 up to about 1.1 µM and inactive = higher.
Classes used: active, inactive

COMPOUND: C/C(=N\N(C)C)c1sc(-n2nc(-c3ccccc3)cc2-c2ccccc2)nc1C
CLASS NAME: inactive
//
COMPOUND: Cc1c(-c2ccccc2)[nH]c2cn[nH]c(=O)c12
CLASS NAME: inactive
//
COMPOUND: Cn1c(=O)sc2cc(C(=S)N3CCOCC3)ccc21
CLASS NAME: inactive
//
COMPOUND: C[C@@H](c1ccccc1)N1CO[C@@]2(C#Cc3ccc4c(c3)OCO4)CCC[C@@H]12
CLASS NAME: inactive
//
COMPOUND: CC1=C(C(=O)NNC(=O)C(N)=O)CC(C(=O)NNC(=O)C(N)=O)=C(C)N1
CLASS NAME: inactive
//
COMPOUND: Cc1cccc(C2NC(=O)c3ccccc3N2)c1 (centres undefined)
CLASS NAME: inactive
//
COMPOUND: O=Cc1cn(C(=O)c2ccccc2)c2ccccc12
CLASS NAME: inactive
//
COMPOUND: Cc1nc2ccc(Cl)cc2c(-n2ccnc2)c1CCn1ccnc1
CLASS NAME: inactive
//
COMPOUND: CC1=C(\C=C/C(C)=C/C=C/C(C)=C/C=C/C=C(C)\C=C\C=C(C)/C=C/C2=C(C)CCCC2(C)C)C(C)(C)CCC1
CLASS NAME: inactive
//
COMPOUND: Cn1c2ccccc2c(=O)c2ccc(Cl)cc21
CLASS NAME: inactive
//
COMPOUND: CCCCCCCCCOC(=S)NC
CLASS NAME: inactive
//
COMPOUND: CN(C)c1ncnc2c1ncn2CCn1cnc2c(N(C)C)ncnc21
CLASS NAME: inactive
//
COMPOUND: COC(=O)c1ccccc1CC1Cc2cc3c(cc2C1=O)CCC3 (centres undefined)
CLASS NAME: inactive
//
COMPOUND: CN(CC(=O)N1CC(CCl)c2ccc([N+](=O)[O-])cc21)CC(=O)N1CC(CCl)c2ccc([N+](=O)[O-])cc21 (centres undefined)
CLASS NAME: inactive
//
COMPOUND: CSc1cccc(-n2c3nc(=O)n(C)c(=O)c-3nc3ccccc32)c1
CLASS NAME: inactive
//
COMPOUND: CCC1(O)CC(OC2CC(N(C)C)C(OC3CC(O)C(OC4OC(C)C(=O)C=C4N)C(C)O3)C(C)O2)c2c(cc3c(c2O)C(=O)c2c(O)cccc2C3=O)C1C(=O)OC (centres undefined)
CLASS NAME: active
//
COMPOUND: O=C1/C(=C/c2cccc([N+](=O)[O-])c2)CCCc2ccccc21
CLASS NAME: inactive
//
COMPOUND: Cc1cccc(NC(=O)/C=C/c2ccccc2)c1C
CLASS NAME: inactive
//
COMPOUND: O=C(O)C(CS)Nc1c2ccccc2nc2ccccc12 (centres undefined)
CLASS NAME: inactive
//
COMPOUND: CCN(CC)c1nc(=O)c(C(=O)C(C)(C)C)c(C(C)(C)C)o1
CLASS NAME: inactive
//
COMPOUND: O=S(=O)(N/C(=N\O)Nc1ccc(Cl)cc1)c1cc(S(=O)(=O)c2ccccc2)cs1
CLASS NAME: inactive
//
COMPOUND: COC(=O)CSC1CC(=O)c2c(Cl)sc(Cl)c21 (centres undefined)
CLASS NAME: inactive
//
COMPOUND: [N-]=[N+]=C(C(=O)N1CCCC1=O)S(=O)(=O)c1ccccc1
CLASS NAME: inactive
//
COMPOUND: Cc1ccc(S(=O)(=O)NC(=O)NCCc2c[nH]cn2)cc1
CLASS NAME: inactive
//
COMPOUND: CCOc1ccccc1NC(=O)CCC(=O)NN
CLASS NAME: inactive
//
COMPOUND: O=C(c1cccc(OCc2ccccc2)c1OCc1ccccc1)N1CCSC1=S
CLASS NAME: inactive
//
COMPOUND: CC[C@@H](/C=C\CCC1(C[C@H](O)CCC=C(C)C)OCCO1)O[Si](C(C)C)(C(C)C)C(C)C
CLASS NAME: inactive
//
COMPOUND: O=c1ccc2cc(O)c(O)cc2o1 [ESCULETIN]
CLASS NAME: inactive
//
COMPOUND: COc1ccc(S(=O)(=O)N/N=C(\C)CN2C(=O)c3ccccc3C2=O)cc1
CLASS NAME: inactive
//
COMPOUND: Cc1c(CNc2ccc(Cl)c(C(=O)NC(CC(=O)O)C(=O)O)c2)ccc2nc(N)nc(N)c12 (centres undefined)
CLASS NAME: active
//
COMPOUND: O=c1[nH]cnc2c1ncn2[C@H]1CO[C@@H](CO)[C@@H]1O
CLASS NAME: inactive
//
COMPOUND: C=C(NC(=O)C(=C)NC(=O)c1csc(C2=NC3c4csc(n4)C4NC(=O)c5csc(n5)C(C(C)(O)C(C)O)NC(=O)C5CSC(=N5)/C(=C/C)NC(=O)C(C(C)O)NC(=O)c5csc(n5)C3(CC2)NC(=O)C(C)NC(=O)C(=C)NC(=O)C(=C)NC(=O)C(C(C)C)NC2C=Cc3c(C(C)O)cc(nc3C2O)C(=O)OC4C)n1)C(N)=O (centres undefined)
CLASS NAME: inactive
//
COMPOUND: CC(C)(C)CNCCO
CLASS NAME: inactive
//
COMPOUND: CC(C)=CC(=O)OC1C2C(C)C(=O)OC2C(O)C(C)C2C=CC(=O)C21C (centres undefined)
CLASS NAME: inactive
//
COMPOUND: C/C(CC(=O)Nc1cccc([N+](=O)[O-])c1)=N\NC(=O)C[n+]1ccccc1
CLASS NAME: inactive
//
COMPOUND: CN(C)c1ccc(/C=C2\N=C(c3ccccc3)N(c3nc4ccc(Sc5ccccc5)cc4[nH]3)C2=O)cc1
CLASS NAME: inactive
//
COMPOUND: O=C1Nc2ccccc2/C1=C1/Nc2ccccc2/C1=N\OCCNCC(O)C(O)C(O)C(O)CO (centres undefined)
CLASS NAME: inactive
//
COMPOUND: COc1ccc(C2Oc3cc(OC)c(O)cc3[C@@H]2C)cc1 (some centres undefined)
CLASS NAME: inactive
//
COMPOUND: CCn1cc(C(=O)O)c(=O)c2cc(F)c(N3CCN(CN4C(=O)/C(=N\c5ncc(Cc6cc(OC)c(OC)c(OC)c6)c(N)n5)c5cc(Cl)ccc54)CC3)cc21
CLASS NAME: inactive
